# target system: MAP2K6 (human) (UniProt P52564)
# Sequence (P52564 whole entry, looked up): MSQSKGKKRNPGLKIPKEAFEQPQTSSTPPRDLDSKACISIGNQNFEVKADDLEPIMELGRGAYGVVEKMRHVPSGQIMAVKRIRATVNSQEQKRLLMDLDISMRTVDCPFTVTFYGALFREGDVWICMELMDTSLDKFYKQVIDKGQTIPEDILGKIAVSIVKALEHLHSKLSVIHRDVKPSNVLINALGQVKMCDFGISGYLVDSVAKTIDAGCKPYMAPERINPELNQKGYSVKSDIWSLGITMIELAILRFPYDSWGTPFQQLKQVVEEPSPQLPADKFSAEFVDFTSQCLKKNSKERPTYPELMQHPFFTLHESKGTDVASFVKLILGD
# assay comment: radiometric filter-binding kinase assay
# condition: compound 1.0 µM
quantity name: residual activity (%)

# count of solved cases: 5
C=CC(=O)N1CCC[C@@H](n2nc(-c3ccc(Oc4ccccc4)cc3)c3c(N)ncnc32)C1; 97
O=C(Nc1ccccc1-c1cn2c(CN3CCNCC3)csc2n1)c1cnc2ccccc2n1; 97
CCNc1nc(Nc2cc(F)c(C(=O)N3CCOCC3)cc2OC)ncc1C(F)(F)F; 72
NC1(c2ccc(-c3nc4ccn5c(=O)[nH]nc5c4cc3-c3ccccc3)cc2)CCC1; 98
Cc1nc(-c2ccc(OCC(C)C)c(C#N)c2)sc1C(=O)O; 85

P = N#Cc1c(C2CCNCC2)cc(-c2c(O)cccc2OCC2CC2)nc1N
Q = NC(=O)c1cc(-c2ccnc(NC3CCCCC3)c2)nc(N2CCNCC2)c1
(Q) From the recorded data, which exceeds the other in residual activity: P or Q ? Indicate which entry you chose by stating its label.
(A) P
(P: 76%, Q: 29%)
